compounds and their reported MNTC at 960 h
# Run Description: Cytotoxicity against human MT4 cells after 40 days by MTT assay
# Assay type: cell-based
Respond with the bare value in µM.

Cc1cc(C)c(Nc2ccnc(Nc3ccc(C#N)cc3)n2)c(C)c1 [DAPIVIRINE] ... 0.3
Cc1c(C(C)c2c(F)cccc2F)nc(N(C)C)[nH]c1=O (stereo not drawn) ... 30

# ---- query compound ----
Enquiry: Which MNTC at 960 h value is on record for CCc1c(C(F)c2cc(C)cc(C)c2)n(COCc2ccc(C#CCO)cc2)c(=O)[nH]c1=O (stereo not drawn) ?
Return: 10

---

compounds and their reported EC99
# System: Human immunodeficiency virus 1
# Run Description: Antiviral activity against HIV1 MP634 infected in human dendritic cells assessed as inhibition of p24 in supernatants
# Particulars: Human immunodeficiency virus 1, MP634, dendritic cells
For clarity, give the value followed by its unit.

Below are worked cases with known answers.
Cc1c(C(C)c2c(F)cccc2F)nc(N(C)C)[nH]c1=O (centres undefined) ... 0.1 µM
Cc1cc(C)c(Nc2ccnc(Nc3ccc(C#N)cc3)n2)c(C)c1 [DAPIVIRINE] ... 0.01 µM
CCc1c(C(F)c2cc(C)cc(C)c2)n(COCc2ccc(C#CCO)cc2)c(=O)[nH]c1=O (centres undefined) ... 0.01 µM

Enquiry: Which EC99 value is on record for O=C1Nc2ccc(Cl)cc2[C@@](C#CC2CC2)(C(F)(F)F)O1 [EFAVIRENZ] ?
Return: 0.01 µM

---

# Tested on: Human immunodeficiency virus 1
# Run Description: Antiviral activity against wild type HIV1 3B infected in human MT4 cells assessed as inhibition of virus-induced cytopathogenicity after 4 days by MTT assay
# Assay type: functional, organism-based
# Particulars: Human immunodeficiency virus 1, 3B, MT4, 96 h
molecules and their reported pEC50
# pEC50 is unitless: minus log10 of the molar concentration; print number only

C=C(C)COCn1c(C(F)c2cc(C)cc(C)c2)c(CC)c(=O)[nH]c1=O (stereo not drawn) ... 8.10
CCc1c(C(F)c2cc(C)cc(C)c2)[nH]c(=O)n(COCc2ccc(I)cc2)c1=O (stereo not drawn) ... 5.05

# ---- query molecule ----
Enquiry: Which measured pEC50 belongs to CCOCn1c(C(F)c2cc(C)cc(C)c2)c(CC)c(=O)[nH]c1=O (stereo not drawn) , tested on Human immunodeficiency virus 1?
Return: 8.30

---

# Tested on: Human immunodeficiency virus 1
# Run Description: Antiviral activity against […] HIV1 harboring 103N, 181C mutant infected in human MT4 cells assessed as inhibition of virus-induced cytopathogenicity after 4 days by MTT assay
# Format: functional, organism-based
# Particulars: Human immunodeficiency virus 1, MT4, 96 h
Measure Name: EC50 (µM)
Respond with the bare value in µM.

Below are worked cases with known answers.
Cc1cc(C)c(Nc2ccnc(Nc3ccc(C#N)cc3)n2)c(C)c1 [DAPIVIRINE] ... 0.05
Cc1cn([C@H]2C[C@H](N=[N+]=[N-])[C@@H](CO)O2)c(=O)[nH]c1=O [ZIDOVUDINE] ... 0.01
Cc1cc(C#N)cc(C)c1Oc1nc(Nc2ccc(C#N)cc2)nc(N)c1Br [ETRAVIRINE] ... 0.01
CCc1c(C(F)c2cc(C)cc(C)c2)n(COCc2ccc(C#CCO)cc2)c(=O)[nH]c1=O (stereo not given) ... 0.3

Enquiry: Which EC50 value is on record for CCOCn1c(C(F)c2cc(C)cc(C)c2)c(CC)c(=O)[nH]c1=O (stereo not given) ?
Return: 2

Enquiry: Which EC50 value is on record for CC(C)(C)NC(=O)[C@@H]1C[C@@H]2CCCC[C@@H]2CN1C[C@@H](O)[C@H](Cc1ccccc1)NC(=O)[C@H](CC(N)=O)NC(=O)c1ccc2ccccc2n1 ?
Return: 0.01

Enquiry: Which EC50 value is on record for O=C1Nc2ccc(Cl)cc2[C@@](C#CC2CC2)(C(F)(F)F)O1 [EFAVIRENZ] ?
Return: 0.08

Enquiry: Which EC50 value is on record for C=C(C)COCn1c(C(F)c2cc(C)cc(C)c2)c(CC)c(=O)[nH]c1=O (stereo not given) ?
Return: 7

Enquiry: Which EC50 value is on record for CCc1c(C(F)c2cc(C)cc(C)c2)n(COCc2ccc(I)cc2)c(=O)[nH]c1=O (stereo not given) ?
Return: 2

Enquiry: Which EC50 value is on record for CCc1c(C(F)c2cc(C)cc(C)c2)n(COCc2ccc(C#CC=O)cc2)c(=O)[nH]c1=O (stereo not given) ?
Return: 14

Enquiry: Which EC50 value is on record for C=CCOCn1c(C(F)c2cc(C)cc(C)c2)c(CC)c(=O)[nH]c1=O (stereo not given) ?
Return: 1.6

---

# Test system: Human immunodeficiency virus 1
# Run Description: Antiviral activity against NRTI-resistant HIV1 MP1315 infected in human dendritic cells assessed as inhibition of p24 in supernatants
# Particulars: Human immunodeficiency virus 1, MP1315, dendritic cells
Measure Name: EC99 (µM)
Respond with the bare value in µM.

Cc1cc(C)c(Nc2ccnc(Nc3ccc(C#N)cc3)n2)c(C)c1 [DAPIVIRINE] ... 0.0001

Enquiry: Which EC99 value is on record for CCc1c(C(F)c2cc(C)cc(C)c2)n(COCc2ccc(C#CCO)cc2)c(=O)[nH]c1=O (centres undefined) ?
Return: 0.0001

---

# System: Human immunodeficiency virus 1
# Run Description: Antiviral activity against […] HIV1 harboring 103N, 181C mutant infected in human MT4 cells assessed as inhibition of virus-induced cytopathogenicity after 4 days by MTT assay
# Type: functional, organism-based
# Particulars: Human immunodeficiency virus 1, MT4, 96 h
compounds and their reported EC50

Below are worked cases with known answers.
Cc1c(C(C)c2c(F)cccc2F)nc(N(C)C)[nH]c1=O (centres undefined) ... > 20 µM
CCOCn1c(Cc2ccccc2)c(C(C)C)c(=O)[nH]c1=O ... > 100 µM

Enquiry: Which measured EC50 belongs to CCc1c(C(F)c2cc(C)cc(C)c2)[nH]c(=O)n(COCc2ccc(I)cc2)c1=O (centres undefined) , tested on Human immunodeficiency virus 1?
Return: > 100 µM

Enquiry: Which measured EC50 belongs to Cc1ccnc2c1NC(=O)c1cccnc1N2C1CC1 , tested on Human immunodeficiency virus 1?
Return: > 10 µM
